# target-desc: human recombinant HDAC6 (Homo sapiens, UniProt Q9UBN7)
# Construct: purchased Calbiochem Inc. 382180
# Sequence (Q9UBN7 whole entry): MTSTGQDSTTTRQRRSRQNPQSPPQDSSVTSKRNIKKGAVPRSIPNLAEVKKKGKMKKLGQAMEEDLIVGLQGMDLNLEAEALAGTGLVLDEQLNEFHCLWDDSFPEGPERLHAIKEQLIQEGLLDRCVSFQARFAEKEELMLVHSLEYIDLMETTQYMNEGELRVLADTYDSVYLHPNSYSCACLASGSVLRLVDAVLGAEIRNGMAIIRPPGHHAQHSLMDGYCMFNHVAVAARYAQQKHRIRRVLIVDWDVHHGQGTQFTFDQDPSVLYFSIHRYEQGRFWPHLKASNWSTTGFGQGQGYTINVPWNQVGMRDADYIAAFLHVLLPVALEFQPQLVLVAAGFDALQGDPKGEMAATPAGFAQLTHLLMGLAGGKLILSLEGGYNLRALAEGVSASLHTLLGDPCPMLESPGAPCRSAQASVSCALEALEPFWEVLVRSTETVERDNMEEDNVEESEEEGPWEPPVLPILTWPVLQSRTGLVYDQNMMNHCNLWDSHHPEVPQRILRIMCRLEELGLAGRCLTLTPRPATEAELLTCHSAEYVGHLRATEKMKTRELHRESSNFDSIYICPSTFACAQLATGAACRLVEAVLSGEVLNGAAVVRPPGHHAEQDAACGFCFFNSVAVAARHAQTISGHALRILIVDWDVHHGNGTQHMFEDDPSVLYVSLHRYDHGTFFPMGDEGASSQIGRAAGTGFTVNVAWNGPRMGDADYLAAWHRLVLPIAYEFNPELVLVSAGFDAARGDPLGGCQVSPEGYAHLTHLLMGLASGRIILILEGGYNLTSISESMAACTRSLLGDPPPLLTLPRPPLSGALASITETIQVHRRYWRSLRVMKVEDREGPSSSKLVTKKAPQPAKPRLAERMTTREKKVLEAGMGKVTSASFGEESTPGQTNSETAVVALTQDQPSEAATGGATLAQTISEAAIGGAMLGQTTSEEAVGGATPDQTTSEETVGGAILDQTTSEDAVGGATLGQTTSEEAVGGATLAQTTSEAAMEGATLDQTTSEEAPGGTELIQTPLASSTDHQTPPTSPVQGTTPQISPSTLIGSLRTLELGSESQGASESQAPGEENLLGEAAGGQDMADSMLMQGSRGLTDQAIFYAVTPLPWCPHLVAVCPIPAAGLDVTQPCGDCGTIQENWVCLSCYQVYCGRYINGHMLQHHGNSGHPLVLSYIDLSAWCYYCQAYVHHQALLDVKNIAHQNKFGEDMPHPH
# measurement-protocol: In vitro HDAC enzyme activity inhibition assay, HDAC6 (HDAC Fluorimetric Drug Discovery Kit)
# Type: biochemical
# run-parameters: HDAC6 versus HDAC1
Rule: HDAC6 Selectivity (fold) under 200 fold gives no (0), otherwise yes (1).

Determine whether this compound has HDAC6 Selectivity (fold) no lower than 200 fold: `O=C(C1CCN(C2CCC2)CC1)N(Cc1cn2ccc(-c3nnc(C(F)F)o3)cc2n1)c1ccccc1` no (0)

Determine whether this compound has HDAC6 Selectivity (fold) no lower than 200 fold: `CC(C)N1CCN(C(=O)N(Cc2cn3ccc(-c4nnc(C(F)F)o4)cc3n2)c2cccc(F)c2)CC1` yes (1)

Determine whether this compound has HDAC6 Selectivity (fold) no lower than 200 fold: `O=C(C1CCC1)N1CC(C(=O)N(Cc2cn3ccc(-c4nnc(C(F)F)o4)cc3n2)c2cccc(F)c2)C1` yes (1)

Determine whether this compound has HDAC6 Selectivity (fold) no lower than 200 fold: `FC(F)c1nnc(-c2ccn3cc(CNc4cccnc4)nc3c2)o1` yes (1)

Determine whether this compound has HDAC6 Selectivity (fold) no lower than 200 fold: `CN(C)C(=O)N1CC(C(=O)N(Cc2cn3ccc(-c4nnc(C(F)F)o4)cc3n2)c2ccccc2)C1` no (0)

---

# target-desc: human recombinant HDAC6 (Homo sapiens, UniProt Q9UBN7)
# Construct: purchased Calbiochem Inc. 382180
# measurement-protocol: In vitro HDAC enzyme activity inhibition assay, HDAC6 (HDAC Fluorimetric Drug Discovery Kit)
# Format: biochemical
# run-parameters: HDAC6 versus HDAC1
endpoint: HDAC6 Selectivity (fold)
Reply numerically in fold, unit not repeated.

Recorded HDAC6 Selectivity (fold) for CCC(=O)N1CCN(C(=O)N(Cc2cn3ccc(-c4nnc(C(F)F)o4)cc3n2)c2cccc(F)c2)CC1 [Compound 4093] , please? 256

Recorded HDAC6 Selectivity (fold) for CC(C)N1CC(C(=O)N(Cc2cn3ccc(-c4nnc(C(F)F)o4)cc3n2)c2ccccc2)C1 [Compound 4160] , please? 247

Recorded HDAC6 Selectivity (fold) for O=C(CO)N1CC(C(=O)N(Cc2cn3ccc(-c4nnc(C(F)F)o4)cc3n2)c2cccc(F)c2)C1 [Compound 4199] , please? 200

Recorded HDAC6 Selectivity (fold) for O=C(N1CCN(C2CCOCC2)CC1)N(Cc1cn2ccc(-c3nnc(C(F)F)o3)cc2n1)c1ccccc1 [Compound 4038] , please? 382

Recorded HDAC6 Selectivity (fold) for O=C(C1CCN(c2ncccn2)CC1)N(Cc1cn2ccc(-c3nnc(C(F)F)o3)cc2n1)c1cccc(F)c1 [Compound 4157] , please? 306

Recorded HDAC6 Selectivity (fold) for O=C(C1CN(C2CCCCC2)C1)N(Cc1cn2ccc(-c3nnc(C(F)F)o3)cc2n1)c1ccccc1 [Compound 4164] , please? 147

Recorded HDAC6 Selectivity (fold) for O=C(N1CCN(C2CCC2)CC1)N(Cc1cn2ccc(-c3nnc(C(F)F)o3)cc2n1)c1ccccc1 [Compound 4036] , please? 321

---

# target-desc: human recombinant HDAC6 (Homo sapiens)
# Construct: purchased Calbiochem Inc. 382180
# measurement-protocol: In vitro HDAC enzyme activity inhibition assay, HDAC6 (HDAC Fluorimetric Drug Discovery Kit)
# Format: biochemical
# run-parameters: HDAC6 versus HDAC1
endpoint: HDAC6 Selectivity (fold)
Reply numerically in fold, unit not repeated.

Recorded HDAC6 Selectivity (fold) for `CC(=O)N1CC(C(=O)N(Cc2cn3ccc(-c4nnc(C(F)F)o4)cc3n2)c2ccccc2)C1` , please? 112

Recorded HDAC6 Selectivity (fold) for `COC(=O)N1CC(C(=O)N(Cc2cn3ccc(-c4nnc(C(F)F)o4)cc3n2)c2ccccc2)C1` , please? 168

Recorded HDAC6 Selectivity (fold) for `O=C(N1CCN(C2CCC(F)(F)CC2)CC1)N(Cc1cn2ccc(-c3nnc(C(F)F)o3)cc2n1)c1ccccc1` , please? 338

Recorded HDAC6 Selectivity (fold) for `CN1CCC(C(=O)N(Cc2cn3ccc(-c4nnc(C(F)F)o4)cc3n2)c2cccc(F)c2)CC1` , please? 283

Recorded HDAC6 Selectivity (fold) for `O=C(C1CN(C2CCC2)C1)N(Cc1cn2ccc(-c3nnc(C(F)F)o3)cc2n1)c1cccc(F)c1` , please? 452

Recorded HDAC6 Selectivity (fold) for `O=C(N1CCN(c2ccccn2)CC1)N(Cc1cn2ccc(-c3nnc(C(F)F)o3)cc2n1)c1cccc(F)c1` , please? 107

Recorded HDAC6 Selectivity (fold) for `O=C(CO)N1CCN(C(=O)N(Cc2cn3ccc(-c4nnc(C(F)F)o4)cc3n2)c2cccc(F)c2)CC1` , please? 215

---

# target-desc: human recombinant HDAC6 (Homo sapiens, UniProt Q9UBN7)
# measurement-protocol: In vitro HDAC enzyme activity inhibition assay, HDAC6 (HDAC Fluorimetric Drug Discovery Kit)
# run-parameters: human recombinant HDAC6, same protocol as the HDAC1 test
Record form. Attribute: IC50. Fill in for each entry.
Reply numerically in nM, unit not repeated.

Recorded IC50 for CN(C)C(=O)N1CCC(C(=O)N(Cc2cn3ccc(-c4nnc(C(F)F)o4)cc3n2)c2cccc(F)c2)CC1 [Compound 4155] , please? 352

Recorded IC50 for FC(F)c1nnc(-c2ccn3cc(CNc4ccccc4)nc3c2)o1 [Compound 3668] , please? 167

Recorded IC50 for CC(CO)N1CC(C(=O)N(Cc2cn3ccc(-c4nnc(C(F)F)o4)cc3n2)c2ccccc2)C1 (stereo not shown) [Compound 4161] , please? 223

Recorded IC50 for CC(=O)N1CCC(C(=O)N(Cc2cn3ccc(-c4nnc(C(F)F)o4)cc3n2)c2ccccc2)CC1 [Compound 4122] , please? 353

Recorded IC50 for COC(=O)N1CC(C(=O)N(Cc2cn3ccc(-c4nnc(C(F)F)o4)cc3n2)c2cccc(F)c2)C1 [Compound 4204] , please? 187

Recorded IC50 for CS(=O)(=O)N1CC(C(=O)N(Cc2cn3ccc(-c4nnc(C(F)F)o4)cc3n2)c2ccccc2)C1 [Compound 4173] , please? 312

Recorded IC50 for O=C(C1CN(C2CCCCC2)C1)N(Cc1cn2ccc(-c3nnc(C(F)F)o3)cc2n1)c1ccccc1 [Compound 4164] , please? 340

---

Record form. Attribute: IC50. Fill in for each entry.
# target-desc: human recombinant HDAC1 (Homo sapiens, UniProt Q13547)
# Sequence (Q13547 whole entry): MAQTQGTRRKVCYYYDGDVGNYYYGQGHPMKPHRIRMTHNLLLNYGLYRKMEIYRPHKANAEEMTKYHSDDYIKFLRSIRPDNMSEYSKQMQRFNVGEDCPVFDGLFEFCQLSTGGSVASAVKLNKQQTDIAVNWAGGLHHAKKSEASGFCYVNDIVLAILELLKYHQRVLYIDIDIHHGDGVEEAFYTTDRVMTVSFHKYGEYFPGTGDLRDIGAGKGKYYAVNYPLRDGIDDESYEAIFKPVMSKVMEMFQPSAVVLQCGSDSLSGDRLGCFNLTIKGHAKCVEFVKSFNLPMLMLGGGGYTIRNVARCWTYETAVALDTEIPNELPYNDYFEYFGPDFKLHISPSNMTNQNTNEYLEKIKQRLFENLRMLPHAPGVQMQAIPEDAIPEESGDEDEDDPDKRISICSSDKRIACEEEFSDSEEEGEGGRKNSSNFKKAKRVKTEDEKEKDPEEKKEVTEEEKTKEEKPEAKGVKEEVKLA
# measurement-protocol: In vitro HDAC enzyme activity inhibition assay, HDAC1 (HDAC Fluorimetric Drug Discovery Kit)
# run-parameters: human recombinant HDAC1, Fluor de Lys-SIRT1 substrate 10 μM, 30° C. for 60 minutes

Recorded IC50 for `O=C(C1CCN(C(=O)C(F)(F)F)CC1)N(Cc1cn2ccc(-c3nnc(C(F)F)o3)cc2n1)c1ccccc1` , please? > 50 µM

Recorded IC50 for `COC(=O)N1CCC(C(=O)N(Cc2cn3ccc(-c4nnc(C(F)F)o4)cc3n2)c2ccccc2)CC1` , please? > 50 µM

Recorded IC50 for `O=C(C1CCN(c2ccccn2)CC1)N(Cc1cn2ccc(-c3nnc(C(F)F)o3)cc2n1)c1ccccc1` , please? > 50 µM

Recorded IC50 for `O=C(N1CCN(c2ncccn2)CC1)N(Cc1cn2ccc(-c3nnc(C(F)F)o3)cc2n1)c1cccc(F)c1` , please? > 50 µM

Recorded IC50 for `CC(C)N1CCN(C(=O)N(Cc2cn3ccc(-c4nnc(C(F)F)o4)cc3n2)c2cccc(F)c2)CC1` , please? > 50 µM

Recorded IC50 for `Fc1ccc(Cc2cn3ccc(-c4nnc(C(F)F)o4)cc3n2)c(F)c1` , please? > 50 µM

Recorded IC50 for `CN1CC2(C1)CN(C(=O)N(Cc1cn3ccc(-c4nnc(C(F)F)o4)cc3n1)c1ccccc1)C2` , please? > 50 µM

---

Record form. Attribute: HDAC6 Selectivity (fold). Fill in for each entry.
# target-desc: human recombinant HDAC6 (Homo sapiens, UniProt Q9UBN7)
# Construct: purchased Calbiochem Inc. 382180
# measurement-protocol: In vitro HDAC enzyme activity inhibition assay, HDAC6 (HDAC Fluorimetric Drug Discovery Kit)
# Format: biochemical
# run-parameters: HDAC6 versus HDAC1
Answer shape: numeric part, then the unit.

Recorded HDAC6 Selectivity (fold) for `CN(C)C(=O)N1CCC(C(=O)N(Cc2cn3ccc(-c4nnc(C(F)F)o4)cc3n2)c2ccccc2)CC1` , please? 133 fold

Recorded HDAC6 Selectivity (fold) for `O=C(C1CN(C2COC2)C1)N(Cc1cn2ccc(-c3nnc(C(F)F)o3)cc2n1)c1ccccc1` , please? 122 fold

Recorded HDAC6 Selectivity (fold) for `FC(F)c1nnc(-c2ccn3cc(COc4ccc(C(F)(F)F)cc4)nc3c2)o1` , please? 56 fold

Recorded HDAC6 Selectivity (fold) for `O=C(C1COC1)N1CC(C(=O)N(Cc2cn3ccc(-c4nnc(C(F)F)o4)cc3n2)c2ccccc2)C1` , please? 141 fold
